biological target: Fuc(a1-2)[GalNAc(b1-3)]Gal; assay: glycan array binding signal (z-score within array); higher = stronger binding; conditions: glycan notation: IUPAC condensed, linker removed
This excerpt belongs to a sample that is enriched for the strongest signals.
# reported glycan array binding signal (z-score); entries follow
Respond using a number only.

Q) Which glycan array binding signal (z-score) value belongs to Jacalin (Artocarpus integrifolia) (protein) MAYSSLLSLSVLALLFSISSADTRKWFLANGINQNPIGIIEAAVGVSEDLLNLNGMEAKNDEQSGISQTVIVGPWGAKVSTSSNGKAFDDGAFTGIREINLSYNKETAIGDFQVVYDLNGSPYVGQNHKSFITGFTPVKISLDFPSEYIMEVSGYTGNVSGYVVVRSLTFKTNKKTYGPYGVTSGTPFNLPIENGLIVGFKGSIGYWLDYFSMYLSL ?
A) 0.341

Q) Now consider EPL1 (Trichoderma atroviride), A0PCX2 (protein) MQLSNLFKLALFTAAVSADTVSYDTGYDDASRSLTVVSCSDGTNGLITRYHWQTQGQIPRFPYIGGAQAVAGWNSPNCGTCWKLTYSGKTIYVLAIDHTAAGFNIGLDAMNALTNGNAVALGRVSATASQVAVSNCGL .
A) -0.54
